Every entry's value here was drawn from ChEMBL document CHEMBL4304758.

system.name: NAD-dependent protein deacetylase sirtuin-2 (Homo sapiens)
Sequence (Q8IXJ6 whole entry): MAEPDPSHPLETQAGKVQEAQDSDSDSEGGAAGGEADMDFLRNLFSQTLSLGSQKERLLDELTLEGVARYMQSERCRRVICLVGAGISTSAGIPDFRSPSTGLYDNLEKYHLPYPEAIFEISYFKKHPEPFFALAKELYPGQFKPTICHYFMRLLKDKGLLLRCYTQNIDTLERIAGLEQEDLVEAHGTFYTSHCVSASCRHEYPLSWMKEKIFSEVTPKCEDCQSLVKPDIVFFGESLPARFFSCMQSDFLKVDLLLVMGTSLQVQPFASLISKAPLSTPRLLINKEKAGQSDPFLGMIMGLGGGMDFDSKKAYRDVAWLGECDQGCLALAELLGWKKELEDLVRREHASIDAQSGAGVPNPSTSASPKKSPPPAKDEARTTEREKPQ
experimental.details: Inhibition of recombinant human SIRT2 deacylation activity using Fluor de Lys Sirt2 as substrate measured at 5 mins interval for 30 mins in presence of NAD+ by fluorescence assay
Residues, ends and D or L forms follow the SMILES beside them. *: point of attachment. Phenylacetyl(4-E-phenylazo) = O=C(Cc1ccc(/N=N/c2ccccc2)cc1)*
measured.quantity: pIC50
As a rule, pIC50 stands for the negative log10 of the concentration, concentration in M.

Form field: reported pIC50 of CC[C@H](C)[C@H](NC(=O)[C@H](CCCCNC(=O)Cc1ccc(/N=N/c2ccccc2)cc1)NC(=O)[C@@H](NC(C)=O)C(C)C)C(=O)N[C@@H](CCCCN)C(=O)N[C@@H](CCCCN)C(N)=O (Ac-VK(Phenylacetyl(4-E-phenylazo))IKK-NH2)
6.92

I am curious: what pIC50 value has been reported for CC[C@H](C)[C@H](NC(=O)[C@@H](NC(=O)[C@H](CCCCNC(=O)Cc1ccc(/N=N/c2ccccc2)cc1)NC(=O)[C@H](CC(=O)O)NC(=O)[C@H](CO)NC(C)=O)[C@@H](C)O)C(N)=O (Ac-SDK(Phenylacetyl(4-E-phenylazo))TI-NH2) ?
6.24

---

system.name: NAD-dependent protein deacetylase sirtuin-2 (Homo sapiens)
experimental.details: Inhibition of recombinant human SIRT2 defatty-acylase activity using SFP3 as substrate measured at 5 mins interval for 60 mins in presence of NAD+ by fluorescence assay
Residues, ends and D or L forms follow the SMILES beside them. *: point of attachment. X3 = CN(C)c1ccc(/N=N/c2ccc(CCC(=O)*)cc2)cc1; X1 = O=C(Cc1ccc(/N=N/c2ccc(O)cc2)cc1)*
Give measured pIC50 for each item. Keep answers brief.
Kindly note that pIC50 refers to -log10 of the concentration in mol/L and answer with the value alone.

// lookup pIC50 | system=NAD-dependent protein deacetylase sirtuin-2 (Homo sapiens) | key= CC[C@H](C)[C@H](NC(=O)[C@H](CCCNC(=N)N)NC(C)=O)C(=O)N[C@@H](CCCCNC(=O)CCc1ccc(/N=N/c2ccc(N(C)C)cc2)cc1)C(=O)N[C@@H](CCCNC(=N)N)C(=O)N[C@@H](Cc1ccc(O)cc1)C(N)=O (Ac-RIK(X3)RY-NH2)
6.52

Notebook entry, NAD-dependent protein deacetylase sirtuin-2 (Homo sapiens) assay: pIC50 of CC[C@H](C)[C@H](NC(=O)[C@H](CCCNC(=N)N)NC(C)=O)C(=O)N[C@@H](CCCCNC(=O)Cc1ccc(/N=N/c2ccc(O)cc2)cc1)C(=O)N[C@@H](CCCNC(=N)N)C(=O)N[C@@H](Cc1ccc(O)cc1)C(N)=O (Ac-RIK(X1)RY-NH2) = ?
7.72
